# System: A2058 melanoma cell line
# procedure.summary: Effect of anti-melanoma chemotherapy on viability (IC50) of in vitro growing A2058
# Assay type: cell-based, human
# particulars: Homo sapiens
assay.readout: IC50

{"columns": ["molecule", "target.entity", "IC50"],
 "data": [
  ["CN(Cc1cnc2nc(N)nc(N)c2n1)c1ccc(C(=O)N[C@@H](CCC(=O)O)C(=O)O)cc1 [Methotrexate]", "A2058 melanoma cell line", "> 100 µM"],
  ["CCCC(CCC)C(=O)O [Valproic acid]", "A2058 melanoma cell line", "> 100 µM"],
  ["O=NN(CCCl)C(=O)NCCCl [BCNU, Carmustine]", "A2058 melanoma cell line", "> 100 µM"],
  ["Cn1nnc2c(C(N)=O)ncn2c1=O [Temozolomide]", "A2058 melanoma cell line", "> 100 µM"],
  ["CN(C)/N=N/c1[nH]cnc1C(N)=O [Dacarbazine]", "A2058 melanoma cell line", "> 100 µM"]
]}

Sample CC(=O)O[C@H]1C(=O)[C@@]2(C)[C@H]([C@H](OC(=O)c3ccccc3)[C@]3(O)C[C@H](OC(=O)[C@H](O)[C@@H](NC(=O)c4ccccc4)c4ccccc4)C(C)=C1C3(C)C)[C@]1(OC(C)=O)CO[C@@H]1C[C@@H]2O [Paclitaxel] ; IC50 observed: 0.35 µM

----------
# procedure.summary: Pter and metabolite levels in plasma, tumor, brain and pituitary after i.v. administration (LC-MS/MS)
# Type: in vivo, mice
# particulars: female, nu/nu nude, mouse, plasma, iv, 30 mg/kg, B16-F1-bearing mice; Pter 30 mg/kg i.v.; read-out: half-life in circulating plasma
assay.readout: half-life (min)
Just the number in min, nothing appended.

Sample COc1cc(/C=C/c2ccc(O)cc2)cc(OC)c1 [Pter, trans-3,5-dimethoxy-4′-hydroxystilbene] ; half-life observed: 61.2

The reported measurements were obtained from patent US11179348B2.
